Test system: HCC1937
Assay: normalised response (% of control), CellTiter-Glo; higher = more viable cells (100 = DMSO, 0 = benzethonium chloride kill control)
Conditions: incubation time: 72 h
Label True when normalised response >= 90%; otherwise False.

Answered examples (3):
* CC[C@@]1(O)C(=O)OCc2c1cc1n(c2=O)Cc2cc3c(CN(C)C)c(O)ccc3nc2-1 [Topotecan] (1000 nM) | False
* CO[C@@H](C(=O)N1Cc2[nH]nc(NC(=O)c3ccc(N4CCN(C)CC4)cc3)c2C1)c1ccccc1 [Danusertib] (10 nM) | True
* Cn1cc(CNCC2CCN(c3ncc(C(=O)NO)cn3)CC2)c2ccccc21 [Quisinostat] (1 nM) | True

Can CC/C(=C(\c1ccc(O)cc1)c1ccc(OCCN(C)C)cc1)c1ccccc1 [4-hydroxytamoxifen] (10 nM) be said to have normalised response at or above 90%?
True

Can CCN(CC)CCNC(=O)c1c(C)[nH]c(/C=C2\C(=O)Nc3ccc(F)cc32)c1C [Sunitinib] (100 nM) be said to have normalised response at or above 90%?
True

Can CNC(=O)c1cc(Oc2ccc(NC(=O)Nc3ccc(Cl)c(C(F)(F)F)c3)cc2)ccn1 [Sorafenib] (100 nM) be said to have normalised response at or above 90%?
True

Can O=S(=O)(c1cccc2cnccc12)N1CCCNCC1 [Fasudil] (5 nM) be said to have normalised response at or above 90%?
True

Can COc1cc(CCc2cc(NC(=O)c3ccc(N4CC(C)NC(C)C4)cc3)n[nH]2)cc(OC)c1 (stereo unspecified) [AZD4547] (100 nM) be said to have normalised response at or above 90%?
True

Can Cc1c(CN2CCN(C(=O)[C@H](C)O)CC2)sc2c(N3CCOCC3)nc(-c3cnc(N)nc3)nc12 [GDC-0980] (1000 nM) be said to have normalised response at or above 90%?
False

Can COc1cc(CCc2cc(NC(=O)c3ccc(N4CC(C)NC(C)C4)cc3)n[nH]2)cc(OC)c1 (stereo unspecified) [AZD4547] (0.1 nM) be said to have normalised response at or above 90%?
True

Can CCN(CC)CCNC(=O)c1c(C)[nH]c(/C=C2\C(=O)Nc3ccc(F)cc32)c1C [Sunitinib] (1 nM) be said to have normalised response at or above 90%?
True
